# subject.of.test: Bcl-2 protein (Homo sapiens (Human))
# Sequence (P10415 whole entry): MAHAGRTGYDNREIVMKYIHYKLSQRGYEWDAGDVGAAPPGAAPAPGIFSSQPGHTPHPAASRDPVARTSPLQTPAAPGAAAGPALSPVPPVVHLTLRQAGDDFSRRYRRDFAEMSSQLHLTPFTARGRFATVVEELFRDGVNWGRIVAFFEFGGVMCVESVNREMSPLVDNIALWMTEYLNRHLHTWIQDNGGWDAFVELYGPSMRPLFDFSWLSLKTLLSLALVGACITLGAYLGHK
# method: Inhibition of Bcl-2 by the fluorescence polarisation technique
# Format: binding
# test.context: fluorescence polarisation test; concentration that inhibits fluorescence polarisation by 50%; read-out: IC50 (nM) Bcl-2 FP
Structures can show the parent of a compound that is named as a salt.
parameter: IC50 (nM)

Below are worked cases with known answers.
O=C(c1cc(-c2cc(Cl)ccc2C(=O)N2Cc3ccccc3C[C@H]2CN2CCOCC2)n2c1COCC2)N(c1ccc(O)cc1)c1ccc2c(c1)CCN2 [Example 79, bis(hydrochloride)]; 31
Cn1ccc2cc(N(C(=O)c3cc(-c4cc5c(cc4C(=O)N4Cc6ccccc6C[C@H]4CN4CCOCC4)OCO5)n4c3CCC4)c3ccc(O)cc3)ccc21 [Example 96, hydrochloride]; 11

(1) CC(C)N1CCc2cc(N(C(=O)c3cc(-c4cc5c(cc4C(=O)N4Cc6ccccc6C[C@H]4CN4CCOCC4)OCO5)n4ccccc34)c3ccc(O)cc3)ccc21 [Example 64, hydrochloride]
(2) Cl.[2H]C1([2H])Oc2cc(C(=O)N3Cc4ccccc4C[C@H]3CN3CCOCC3)c(-c3cc(C(=O)N(c4ccc(O)cc4)c4ccc5c(cnn5C)c4)c4n3CCCC4)cc2O1
(3) CN1CC2(CC2)c2cc(N(C(=O)c3cc(-c4cc(Cl)ccc4C(=O)N4Cc5ccccc5C[C@H]4CN4CCOCC4)n4c3CCCC4)c3ccc(O)cc3)ccc21
Q) Sort the 3 compounds by IC50; largest first, smallest last. When ranking, write the labels in the order the request describes.
A) 3, 1, 2
(3: 47 nM, 1: 31 nM, 2: 13 nM)
